Origin of values: ChEMBL document CHEMBL1154232

system: P388; experiment: Cytotoxicity against mouse P388 cells after 24 hrs by SRB assay; format: functional, cell-based; conditions: P388, 24 h
pIC50: −log10 of the molar value.
Reported pIC50 by item:

Example entries and their recorded answers appear below.
- compound: "COc1cc([C@@H]2c3cc4c(cc3[C@@H](O[C@@H]3O[C@@H]5CO[C@@H](C)O[C@H]5[C@H](O)[C@H]3O)[C@H]3COC(=O)[C@H]23)OCO4)cc(OC)c1O [ETOPOSIDE]"
  pIC50: 7.30
- compound: "CCCCCCCCC/C=C\\CC/C=C/[C@@H](O)[C@H](CO[C@@H]1O[C@H](CO)[C@@H](O)[C@H](O)[C@H]1O)NC(=O)[C@H](O)/C=C/CCCCCCCCCCCCCC [ALTERNAROSIDE C]"
  pIC50: "< 4.00"
- compound: "CCCCCCCCCCCCCC/C=C/[C@@H](O)C(=O)N[C@@H](CO[C@@H]1O[C@H](CO)[C@@H](O)[C@H](O)[C@H]1O)[C@H](O)/C=C/CC/C=C(\\C)CCCCCCCC [ALTERNAROSIDE B]"
  pIC50: "< 4.00"

Retrieve pIC50 measured for C=C(CCCCCCCCC)C(=O)CC/C=C/[C@@H](O)[C@H](CO[C@@H]1O[C@H](CO)[C@@H](O)[C@H](O)[C@H]1O)NC(=O)[C@H](O)/C=C/CCCCCCCCCCCCCC [ALTERNAROSIDE A] and print it.
< 4.00
